# TARGET SYSTEM: Glutathione peroxidase 1 (Homo sapiens) (UniProt P07203)
# Sequence (P07203 whole entry, looked up): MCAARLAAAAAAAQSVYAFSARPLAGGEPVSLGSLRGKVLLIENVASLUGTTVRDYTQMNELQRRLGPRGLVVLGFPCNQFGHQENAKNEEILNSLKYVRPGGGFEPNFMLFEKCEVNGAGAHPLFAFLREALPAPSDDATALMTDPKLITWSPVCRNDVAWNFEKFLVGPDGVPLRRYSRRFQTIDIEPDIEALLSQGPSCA
# METHOD SUMMARY: Primary qHTS Assay for Inhibitors of Recombinant Selenoprotein Glutathione Peroxidase 1 (GPX1) (AID 1845191); note: nearly all actives have a fitted effect of over 65% in size
# CONDITION INFO: recombinant GPX1, GR-coupled NADPH fluorescence, 15 min; series mostly up to 48.8 µM
Results filed as inconclusive are left out. Active and inactive are the calls of the source. Calls come from the whole dose curve; as a rule, active = well fitted inhibition curve with a large enough effect; inconclusive = small, poorly fitted or top-dose-only effect; inactive = flat fitted curve, though single readings scatter.
Outcomes: yes (1) = active, no (0) = inactive

[
  {
    "COMPOUND": "COc1ccc(OC)c(N2C(=O)C(Cl)=C(N3CCCCC3)C2=O)c1",
    "QUALITATIVE LABEL": "no (0)"
  },
  {
    "COMPOUND": "O=c1c2c(c1=O)N(CCP(=O)(O)O)CCCN2",
    "QUALITATIVE LABEL": "no (0)"
  },
  {
    "COMPOUND": "CCC1(C)OC(=O)N(C)C1=O (stereo not given)",
    "QUALITATIVE LABEL": "no (0)"
  },
  {
    "COMPOUND": "COc1ccc(CNc2nc(N3CCC[C@H]3CO)ncc2C(=O)NCc2ncccn2)cc1Cl",
    "QUALITATIVE LABEL": "no (0)"
  },
  {
    "COMPOUND": "CCn1c(-c2nc3cc(C(=O)N4CCC[C@@H](N)C4)cc(OC)c3n2C)cc2ccccc21",
    "QUALITATIVE LABEL": "no (0)"
  },
  {
    "COMPOUND": "C[C@@H]1[C@H](C)CC[C@]2(C(=O)O[C@@H]3O[C@@H](CO[C@@H]4O[C@@H](CO)[C@@H](O[C@@H]5O[C@@H](C)[C@@H](O)[C@@H](O)[C@H]5O)[C@@H](O)[C@H]4O)[C@@H](O)[C@@H](O)[C@H]3O)CC[C@]3(C)C(=CC[C@H]4[C@@]5(C)C[C@@H](O)[C@@H](O)[C@](C)(CO)[C@@H]5CC[C@@]43C)[C@H]12",
    "QUALITATIVE LABEL": "no (0)"
  },
  {
    "COMPOUND": "COc1cc2nc(N3CCCCC3)nc(NC3CCN(C)CC3)c2cc1OC",
    "QUALITATIVE LABEL": "yes (1)"
  },
  {
    "COMPOUND": "CCC(C)n1ncn(-c2ccc(N3CCN(c4ccc(OCC5COC(Cn6cncn6)(c6ccc(Cl)cc6Cl)O5)cc4)CC3)cc2)c1=O (stereo not given)",
    "QUALITATIVE LABEL": "no (0)"
  },
  {
    "COMPOUND": "CCC(=O)NC[C@@H]1C[C@H]1c1cccc2c1CCO2",
    "QUALITATIVE LABEL": "no (0)"
  },
  {
    "COMPOUND": "CCCCCC(O)/C=C/[C@@H]1C(CCCCCCC(=O)O)C(=O)C[C@@H]1O (stereo not given in full)",
    "QUALITATIVE LABEL": "no (0)"
  },
  {
    "COMPOUND": "NS(=O)(=O)c1ccc(-n2nc(C(F)(F)F)cc2-c2ccc(F)cc2)cc1",
    "QUALITATIVE LABEL": "no (0)"
  },
  {
    "COMPOUND": "CN1CCN(C(c2ccc(F)cc2)c2sc3nc(-c4ccco4)nn3c2O)CC1 (stereo not given)",
    "QUALITATIVE LABEL": "no (0)"
  },
  {
    "COMPOUND": "CC[C@H](C)[C@@H]([C@@H](CC(=O)N1CCC[C@H]1[C@H](OC)[C@@H](C)C(=O)NCCc1ccccc1)OC)N(C)C(=O)[C@@H](NC(=O)[C@H](C(C)C)N(C)C)C(C)C",
    "QUALITATIVE LABEL": "no (0)"
  },
  {
    "COMPOUND": "CC(C)N(CCCCOCC(=O)O)c1cnc(-c2ccccc2)c(-c2ccccc2)n1",
    "QUALITATIVE LABEL": "no (0)"
  },
  {
    "COMPOUND": "CC(=O)NC(C=O)C(O)C(O)[C@H](O)CO (stereo not given in full)",
    "QUALITATIVE LABEL": "no (0)"
  },
  {
    "COMPOUND": "COc1ccc(-c2cc(-c3ccc4c(c3)NC(=O)CO4)nc3c2COc2ccc(C)cc2-3)cc1",
    "QUALITATIVE LABEL": "no (0)"
  },
  {
    "COMPOUND": "OCC1OC(c2ccc(Cl)c(Cc3ccc(OC4CCOC4)cc3)c2)C(O)C(O)C1O (stereo not given)",
    "QUALITATIVE LABEL": "no (0)"
  },
  {
    "COMPOUND": "C[C@H]1C[C@H]2[C@H]3CCC4=CC(=O)C=C[C@]4(C)[C@@]3(F)[C@@H](O)C[C@]2(C)[C@@]1(OC(=O)c1ccccc1)C(=O)CO",
    "QUALITATIVE LABEL": "no (0)"
  },
  {
    "COMPOUND": "Clc1ccc(-c2csc(NN=C3CCCC3)n2)cc1",
    "QUALITATIVE LABEL": "no (0)"
  },
  {
    "COMPOUND": "COc1ccc(Cl)cc1NC(=O)Nc1cc(C)nc2ccccc12",
    "QUALITATIVE LABEL": "no (0)"
  },
  {
    "COMPOUND": "Cc1oc(-c2ccccc2)nc1CCOc1ccc(CC2C(=O)NOC2=O)cc1 (stereo not given)",
    "QUALITATIVE LABEL": "no (0)"
  },
  {
    "COMPOUND": "O=NCc1ccc([N+](=O)[O-])o1",
    "QUALITATIVE LABEL": "no (0)"
  },
  {
    "COMPOUND": "CCN(CCN(C)C)C(=O)CNCc1cc(C(=O)O)ccn1",
    "QUALITATIVE LABEL": "no (0)"
  },
  {
    "COMPOUND": "Cc1cc(Nc2cccc(C(F)(F)F)c2)nc2ccc(NC(=O)c3ccc(=O)[nH]c3)cc12",
    "QUALITATIVE LABEL": "no (0)"
  },
  {
    "COMPOUND": "N#Cc1c(N2C[C@@H]3NCCO[C@H]3C2)c(F)cc2c(=O)c(C(=O)O)cn(C3CC3)c12",
    "QUALITATIVE LABEL": "no (0)"
  },
  {
    "COMPOUND": "CC(C)(C)c1ccc(S(=O)(=O)Nc2ccc(-n3ccnc3)cc2)cc1",
    "QUALITATIVE LABEL": "no (0)"
  },
  {
    "COMPOUND": "CN1C(=O)[C@]23C[C@H]4C(C)(C)[C@]5(CNc6c5ccc5c6OC=CC(C)(C)O5)C[C@@]41CN2CC[C@@]3(C)O",
    "QUALITATIVE LABEL": "no (0)"
  },
  {
    "COMPOUND": "OB1OCc2cc(F)ccc21",
    "QUALITATIVE LABEL": "no (0)"
  },
  {
    "COMPOUND": "O=C1NC(=O)/C(=C/c2ccc3c(c2)OCO3)S1",
    "QUALITATIVE LABEL": "no (0)"
  },
  {
    "COMPOUND": "CN1CCc2cc(Nc3ncc(C4CC4)c(NCCCNC(=O)C4CCC4)n3)ccc2C1",
    "QUALITATIVE LABEL": "no (0)"
  }
]
